assay: molar heat capacity at constant pressure; conditions: 328.15 K; 101.33 kPa; Liquid
testReadout: molar heat capacity at constant pressure (J/K/mol)

[
  {
    "compound": "CC(O)C(C)O (stereo not given)",
    "resultUnit": "J/K/mol",
    "molar heat capacity at constant pressure": 251.6
  },
  {
    "compound": "CCCCO",
    "resultUnit": "J/K/mol",
    "molar heat capacity at constant pressure": 200.4
  },
  {
    "compound": "CC(O)CC(C)(C)O (stereo not given)",
    "resultUnit": "J/K/mol",
    "molar heat capacity at constant pressure": 289.17
  },
  {
    "compound": "OCCCCO",
    "resultUnit": "J/K/mol",
    "molar heat capacity at constant pressure": 220.72
  },
  {
    "compound": "CCC(O)CO (stereo not given)",
    "resultUnit": "J/K/mol",
    "molar heat capacity at constant pressure": 246.72
  }
]

====

assay: molar heat capacity at constant pressure; conditions: 323.15 K; 101.33 kPa; Liquid
testReadout: molar heat capacity at constant pressure (J/K/mol)

These recorded examples may help you get a feel for the data.
[
  {
    "compound": "CC(O)C(C)O (stereo not given)",
    "obsValue": 249.23
  },
  {
    "compound": "OCCCCO",
    "obsValue": 217.61
  },
  {
    "compound": "CCC(O)CO (stereo not given)",
    "obsValue": 244.18
  }
]

a = CC(O)CC(C)(C)O (stereo not given)
b = CCCCO
Qu. Higher molar heat capacity at constant pressure between a and b ? Kindly give the label for the entry you pick.
Ans. a
(a: 284.5 J/K/mol, b: 196.13 J/K/mol)

====

test: molar heat capacity at constant pressure; conditions: 308.15 K; 101.33 kPa; Liquid
testReadout: molar heat capacity at constant pressure (J/K/mol)

[
  {
    "compound": "CC(O)C(C)O (stereo not given)",
    "molar heat capacity at constant pressure, J/K/mol": 241.85
  },
  {
    "compound": "CCC(O)CO (stereo not given)",
    "molar heat capacity at constant pressure, J/K/mol": 236.32
  },
  {
    "compound": "OCCCCO",
    "molar heat capacity at constant pressure, J/K/mol": 208.65
  }
]

1 = CC(O)CC(C)(C)O (stereo not given)
2 = CCCCO
Qu. Compare 1 and 2 and name the one whose reported molar heat capacity at constant pressure is smaller. Kindly give the label for the entry you pick.
Ans. 2
(2: 184.28 J/K/mol, 1: 271.31 J/K/mol)

====

assay: molar heat capacity at constant pressure; conditions: 318.15 K; 101.33 kPa; Liquid
testReadout: molar heat capacity at constant pressure (J/K/mol)

These recorded examples may help you get a feel for the data.
[
  {
    "compound": "CC(O)C(C)O (stereo not given) [2,3-butanediol]",
    "resultUnit": "J/K/mol",
    "molar heat capacity at constant pressure": 246.82
  },
  {
    "compound": "OCCCCO [1,4-butanediol]",
    "resultUnit": "J/K/mol",
    "molar heat capacity at constant pressure": 214.55
  },
  {
    "compound": "CCC(O)CO (stereo not given) [1,2-butanediol]",
    "resultUnit": "J/K/mol",
    "molar heat capacity at constant pressure": 241.59
  }
]

A = CC(O)CC(C)(C)O (stereo not given) [2-methyl-2,4-pentanediol]
B = CCCCO [butan-1-ol]
Qu. Higher molar heat capacity at constant pressure between A and B ? Kindly give the label for the entry you pick.
Ans. A
(A: 279.94 J/K/mol, B: 192.1 J/K/mol)
